Assay: qHTS assay for small molecule activators of the heat shock response signaling pathway (AID 743210);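 note: HeLa cells with beta-lactamase reporter driven by heat shock elements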
Conditions: HeLa HSE-bla reporter, beta-lactamase ratio, 5 h; series mostly up to 62.6 µM
Inconclusive results are not listed. The source made the active and inactive calls. Calls come from the whole dose curve; as a rule, active = well fitted activation curve with a large enough effect in the signal ratio in the repeat runs, with a control signal flat (not every such curve was filed as active); inconclusive = weak or mixed curves; inactive = flat fitted curve, though single readings scatter; the % refers to the signal ratio.

# COMPOUND, outcome
records = [
    ("COC(=O)C(C)Oc1ccc(Oc2ccc(Cl)cc2Cl)cc1 (stereo not given)", "inactive"),
    ("COc1cc(C[C@@H](C)N)c(OC)cc1C", "inactive"),
    ("CCN(CC)C(C)C(=O)c1ccccc1 (stereo not given)", "inactive"),
    ("CN1C(=S)CN=C(c2ccccc2)c2cc(Cl)ccc21", "inactive"),
    ("O=C(Oc1ccc(Br)cc1)N1CCN2CCC1CC2", "inactive"),
    ("CSc1nc(N=[N+]=[N-])nc(NC(C)C)n1", "inactive"),
    ("COC(=O)c1c(C(F)F)nc(C(F)(F)F)c(C2=NCCS2)c1CC(C)C", "inactive"),
    ("ClCCCN1CCN(c2cccc(Cl)c2)CC1", "inactive"),
    ("CCOP(=S)(OCC)SCSc1ccc(Cl)cc1", "inactive"),
    ("Nc1n[nH]c(N)n1", "inactive"),
    ("CCCCN(CCCCO)N=O", "inactive"),
    ("CC1(C)CON(Cc2ccccc2Cl)C1=O", "inactive"),
    ("O=C(N[C@H]1CN2CCC1CC2)c1cc2ccoc2cn1", "inactive"),
    ("COc1cccc(C(=O)NN(C(=O)c2cc(C)cc(C)c2)C(C)(C)C)c1C", "inactive"),
    ("N#Cc1ccncc1", "inactive"),
]

###

Target: Nuclear receptor ROR-gamma (Homo sapiens) (UniProt P51449)
Assay: qHTS assay to identify small molecule antagonists of the retinoid-related orphan receptor gamma (ROR-gamma) signaling pathway (AID 1159521; note: nearly all actives have a fitted effect of over 50% in size)
Settings: Tet-on RORgamma CHO cells, RORE-luciferase, 16 h; series mostly up to 92.4 µM
Results filed as inconclusive are left out. Calls of active or inactive are those of the source. Calls come from the whole dose curve; as a rule, active = well fitted inhibition curve with a large enough effect in the repeat runs; inconclusive = weak or mixed curves, or effect the other way; inactive = no such curve, though single readings can be large or run the other way.
Labels: True = active, False = inactive

# COMPOUND, CLASS_NAME
measured = [
    ("N#CCCC#N", "False"),
    ("CC(=O)CC(c1ccc(Cl)cc1)c1c(O)c2ccccc2oc1=O (configuration not stated)", "False"),
    ("Nc1n[nH]c(N)n1", "True"),
    ("NC1=NC(=O)C(c2ccccc2)O1 (configuration not stated)", "False"),
    ("CC1=C(C(=O)Nc2ccccc2)S(=O)(=O)CCO1", "True"),
    ("CCC(C)n1c(=O)[nH]c(C)c(Br)c1=O (configuration not stated)", "False"),
    ("COC(=O)C(c1ccccc1)C1CCCCN1 (configuration not stated)", "False"),
    ("O=C(CCCN1CCC(n2c(=O)[nH]c3ccccc32)CC1)c1ccc(F)cc1", "False"),
    ("CCN(CC)C(=O)[C@@H]1C=C2c3cccc4[nH]cc(c34)C[C@H]2N(C)C1", "False"),
    ("[Cl][Sn]([Cl])([Cl])[Cl]", "False"),
    ("COc1cccc2c1cc([N+](=O)[O-])c1c(C(=O)O)cc3c(c12)OCO3", "True"),
    ("N#CC(O)c1ccccc1 (configuration not stated)", "False"),
]

###

Biological target: Aryl hydrocarbon receptor (Homo sapiens)
Assay: qHTS assay to identify small molecule that activate the aryl hydrocarbon receptor (AhR) signaling pathway (AID 743085); note: nearly all actives have a fitted effect of over 15% in size;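 for activation: HG2L7.5c1 human HepG2 liver cells with stably integrated DRE-driven firefly reporter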
Conditions: HepG2 AhR-luc (HG2L7.5c1), luciferase, 24 h; series mostly up to 70.3 µM
Records with an inconclusive call do not appear. Active and inactive are the calls of the source. Calls come from the whole dose curve; as a rule, active = well fitted activation curve with a large enough effect in the repeat runs; inconclusive = weak or mixed curves; inactive = no such curve, though single readings can be large or run the other way.
Labels: y = active, n = inactive

# COMPOUND, CLASS_NAME
data = [
    ("CC(=O)Nc1cc([As](=O)(O)O)ccc1O", "n"),
    ("CCOc1nc(C(Cl)(Cl)Cl)ns1", "n"),
    ("COC(=O)c1ccccc1S(=O)(=O)NC(=O)Nc1nc(C)cc(C)n1", "n"),
    ("CCS(=O)(=O)C(C)(C)S(=O)(=O)CC", "n"),
    ("CC(=O)C(Cl)Cl", "n"),
    ("CCc1cc2c(s1)-n1c(C)nnc1CN=C2c1ccccc1Cl", "n"),
    ("CCOC(=O)N(C)C(=O)CSP(=S)(OCC)OCC", "y"),
    ("O=C(Nc1ccccc1)N(Cc1ccc(Cl)cc1)C1CCCC1", "y"),
    ("CC(C=O)Cc1ccc2c(c1)OCO2 (stereo unspecified)", "n"),
    ("N#CCNCC#N", "n"),
    ("O=[N+]([O-])c1cccc(O)c1", "n"),
    ("C=C(C)CN(CC)c1c([N+](=O)[O-])cc(C(F)(F)F)cc1[N+](=O)[O-]", "n"),
    ("Nc1ccccc1Cl", "n"),
    ("Cc1cc(C)nc(Nc2ccccc2)n1", "y"),
    ("CCC/C(=N\\OCC)C1=C(O)CC(CC(C)SCC)CC1=O (stereo unspecified)", "n"),
    ("N#Cc1ccncc1", "n"),
    ("CCCCP(CCCC)CCCC", "n"),
    ("C1CCC(C2CCCCC2)CC1", "n"),
    ("O=C1OC(=O)C2C1C1(Cl)C(Cl)=C(Cl)C2(Cl)C1(Cl)Cl (stereo unspecified)", "n"),
    ("CCS(=O)(=O)CCSP(=O)(OC)OC", "n"),
    ("O=[N+]([O-])c1cccc2cccnc12", "y"),
]

###

Target: Cytochrome P450 1A2 (Homo sapiens) (UniProt P05177)
Sequence (P05177 whole entry, looked up): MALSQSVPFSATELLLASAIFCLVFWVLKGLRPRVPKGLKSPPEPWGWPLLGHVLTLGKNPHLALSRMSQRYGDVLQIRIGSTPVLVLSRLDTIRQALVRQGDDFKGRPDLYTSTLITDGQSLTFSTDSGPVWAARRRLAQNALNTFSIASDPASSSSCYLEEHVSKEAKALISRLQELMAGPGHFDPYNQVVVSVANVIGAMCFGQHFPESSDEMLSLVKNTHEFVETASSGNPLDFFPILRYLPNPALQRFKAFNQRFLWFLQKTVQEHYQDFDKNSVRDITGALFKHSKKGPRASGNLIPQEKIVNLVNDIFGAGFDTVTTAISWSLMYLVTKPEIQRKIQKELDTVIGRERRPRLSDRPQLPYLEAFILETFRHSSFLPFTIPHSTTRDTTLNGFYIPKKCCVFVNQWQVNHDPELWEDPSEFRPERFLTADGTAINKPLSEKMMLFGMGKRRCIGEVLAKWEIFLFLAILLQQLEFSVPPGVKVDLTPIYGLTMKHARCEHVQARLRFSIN
Test: Cytochrome P450 Family 1 Subfamily A Member 2 (CYP1A2) small molecule antagonists: luciferase reporter qHTS assay (AID 1671199); note: nearly all actives have a fitted effect of over 50% in size
Settings: P450-Glo CYP1A2 enzyme, luciferin luminescence, 1 h; series mostly up to 115 µM
Records with an inconclusive call do not appear. Activity calls are given as the source filed them. Calls come from the whole dose curve; as a rule, active = well fitted inhibition curve with a large enough effect in the repeat runs; inconclusive = weak or mixed curves; inactive = no such curve, though single readings can be large or run the other way.
Labels: active, inactive

# COMPOUND, EXPERIMENTAL_SYSTEM, CLASS_NAME
records = [
    ("ClC(Br)Br", "Cytochrome P450 1A2 (Homo sapiens) (UniProt P05177)", "inactive"),
    ("O=C1CN2CCOC2(c2ccccc2Cl)c2cc(Cl)ccc2N1 (stereo unspecified)", "Cytochrome P450 1A2 (Homo sapiens) (UniProt P05177)", "inactive"),
    ("O=NN1CCN(N=O)CC1", "Cytochrome P450 1A2 (Homo sapiens) (UniProt P05177)", "inactive"),
    ("CCOC(=O)C1(c2ccccc2)CCN(CCc2ccc(N)cc2)CC1", "Cytochrome P450 1A2 (Homo sapiens) (UniProt P05177)", "inactive"),
    ("CC(=O)Nc1cc([As](=O)(O)O)ccc1O", "Cytochrome P450 1A2 (Homo sapiens) (UniProt P05177)", "inactive"),
    ("ClCCOCOCCCl", "Cytochrome P450 1A2 (Homo sapiens) (UniProt P05177)", "inactive"),
    ("CCOP(=S)(OCC)Oc1nc(Cl)n(C(C)C)n1", "Cytochrome P450 1A2 (Homo sapiens) (UniProt P05177)", "active"),
    ("CCc1cc2c(s1)-n1c(C)nnc1CN=C2c1ccccc1Cl", "Cytochrome P450 1A2 (Homo sapiens) (UniProt P05177)", "inactive"),
    ("O=C(Oc1ccc(Br)cc1)N1CCN2CCC1CC2", "Cytochrome P450 1A2 (Homo sapiens) (UniProt P05177)", "inactive"),
    ("CS(=O)(=O)c1cc(C(F)(F)F)ccc1C(=O)c1cnoc1C1CC1", "Cytochrome P450 1A2 (Homo sapiens) (UniProt P05177)", "active"),
    ("CC(C(=O)c1ccccc1)N(C)C (stereo unspecified)", "Cytochrome P450 1A2 (Homo sapiens) (UniProt P05177)", "inactive"),
    ("CCS(=O)(=O)CCSP(=O)(OC)OC", "Cytochrome P450 1A2 (Homo sapiens) (UniProt P05177)", "inactive"),
    ("CCNc1nc(NC(C)C)nc(OC)n1", "Cytochrome P450 1A2 (Homo sapiens) (UniProt P05177)", "active"),
    ("Fc1ccc(C2(Cn3cncn3)OC2c2ccccc2Cl)cc1 (stereo unspecified)", "Cytochrome P450 1A2 (Homo sapiens) (UniProt P05177)", "active"),
    ("O=C(O)c1ccc2[nH]cc(CCCCN3CC=C(c4ccccc4)CC3)c2c1", "Cytochrome P450 1A2 (Homo sapiens) (UniProt P05177)", "inactive"),
    ("Cc1cc(C)nc(Nc2ccccc2)n1", "Cytochrome P450 1A2 (Homo sapiens) (UniProt P05177)", "active"),
    ("O=C(Nc1ccccc1)c1ccccc1I", "Cytochrome P450 1A2 (Homo sapiens) (UniProt P05177)", "active"),
    ("Nc1c(Br)cc([N+](=O)[O-])cc1[N+](=O)[O-]", "Cytochrome P450 1A2 (Homo sapiens) (UniProt P05177)", "active"),
    ("OCCSCSCCO", "Cytochrome P450 1A2 (Homo sapiens) (UniProt P05177)", "inactive"),
    ("CN1C[C@@H](NS(=O)(=O)N(C)C)C[C@@H]2c3cccc4c3c(cn4C)C[C@H]21", "Cytochrome P450 1A2 (Homo sapiens) (UniProt P05177)", "inactive"),
    ("CC(CCc1ccccc1)NC(C)C(O)c1ccc(O)cc1 (stereo unspecified)", "Cytochrome P450 1A2 (Homo sapiens) (UniProt P05177)", "active"),
    ("CCSC(=O)N(CC)C1CCCCC1", "Cytochrome P450 1A2 (Homo sapiens) (UniProt P05177)", "inactive"),
    ("CCOP(=S)(Oc1cnc(C(C)(C)C)nc1)OC(C)C (stereo unspecified)", "Cytochrome P450 1A2 (Homo sapiens) (UniProt P05177)", "active"),
    ("C#CCN1C(=O)COc2cc(F)c(N3C(=O)C4=C(CCCC4)C3=O)cc21", "Cytochrome P450 1A2 (Homo sapiens) (UniProt P05177)", "active"),
    ("N#CC(Cl)(Cl)Cl", "Cytochrome P450 1A2 (Homo sapiens) (UniProt P05177)", "inactive"),
    ("CCOP(=O)(N=C1SCCS1)OCC", "Cytochrome P450 1A2 (Homo sapiens) (UniProt P05177)", "inactive"),
    ("COC(=O)C(c1ccccc1)C1CCCCN1 (stereo unspecified)", "Cytochrome P450 1A2 (Homo sapiens) (UniProt P05177)", "inactive"),
    ("CCCCOC(=O)c1ccccc1C(=O)O", "Cytochrome P450 1A2 (Homo sapiens) (UniProt P05177)", "inactive"),
    ("ClCCCN1CCN(c2cccc(Cl)c2)CC1", "Cytochrome P450 1A2 (Homo sapiens) (UniProt P05177)", "active"),
    ("O=c1oc2ccccc2c(O)c1C1CCCc2ccccc21 (stereo unspecified)", "Cytochrome P450 1A2 (Homo sapiens) (UniProt P05177)", "inactive"),
    ("CC(C)(C)OC(=O)c1ncn2c1[C@@H]1CCCN1C(=O)c1c(Br)cccc1-2", "Cytochrome P450 1A2 (Homo sapiens) (UniProt P05177)", "inactive"),
    ("c1cc2c(c(N3CCNCC3)c1)OCCO2", "Cytochrome P450 1A2 (Homo sapiens) (UniProt P05177)", "inactive"),
    ("CC(COc1ccc(Oc2ccccc2)cc1)Oc1ccccn1 (stereo unspecified)", "Cytochrome P450 1A2 (Homo sapiens) (UniProt P05177)", "active"),
    ("CC1CCCCC1NC(=O)Nc1ccccc1 (stereo unspecified)", "Cytochrome P450 1A2 (Homo sapiens) (UniProt P05177)", "active"),
    ("O=S(=O)(O)C(F)(F)C(F)(F)C(F)(F)C(F)(F)C(F)(F)C(F)(F)F", "Cytochrome P450 1A2 (Homo sapiens) (UniProt P05177)", "inactive"),
    ("CCCCN(CCCCO)N=O", "Cytochrome P450 1A2 (Homo sapiens) (UniProt P05177)", "inactive"),
    ("CN(C)CCc1ccc(O)cc1", "Cytochrome P450 1A2 (Homo sapiens) (UniProt P05177)", "inactive"),
    ("CN1CCC(N(Cc2ccccc2)c2ccccc2)CC1", "Cytochrome P450 1A2 (Homo sapiens) (UniProt P05177)", "inactive"),
    ("C[N+](C)=CCl", "Cytochrome P450 1A2 (Homo sapiens) (UniProt P05177)", "inactive"),
    ("CCOC(=O)NC(=S)Nc1ccccc1NC(=S)NC(=O)OCC", "Cytochrome P450 1A2 (Homo sapiens) (UniProt P05177)", "active"),
    ("O=C(Cc1ccccc1)OCc1ccccc1", "Cytochrome P450 1A2 (Homo sapiens) (UniProt P05177)", "active"),
    ("O=NN1CCCCC1", "Cytochrome P450 1A2 (Homo sapiens) (UniProt P05177)", "inactive"),
    ("CCOP(=S)(OCC)SCSP(=S)(OCC)OCC", "Cytochrome P450 1A2 (Homo sapiens) (UniProt P05177)", "active"),
    ("CCCCCCI", "Cytochrome P450 1A2 (Homo sapiens) (UniProt P05177)", "inactive"),
    ("COP(=S)(OC)Oc1c(Cl)cc(C)cc1Cl", "Cytochrome P450 1A2 (Homo sapiens) (UniProt P05177)", "active"),
    ("Nc1n[nH]c(N)n1", "Cytochrome P450 1A2 (Homo sapiens) (UniProt P05177)", "active"),
]
